The following binders are shown together with reported EC50 values.
# Assayed target: T1, human CLDN6 (UniProt P56747 1-220)
# T1 chain: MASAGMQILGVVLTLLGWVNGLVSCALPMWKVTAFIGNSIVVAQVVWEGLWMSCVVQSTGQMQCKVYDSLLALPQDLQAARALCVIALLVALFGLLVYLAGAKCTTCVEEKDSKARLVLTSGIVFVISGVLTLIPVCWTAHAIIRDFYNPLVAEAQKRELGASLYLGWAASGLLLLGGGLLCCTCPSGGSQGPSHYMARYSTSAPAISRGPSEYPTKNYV
# Protocol: HEK293E cell binding; avid
Field format: number, assumed µg/mL, no unit text.

Consider XENP36065 H2.118_L1 (antibody, V domains shown) VH: EVQLVQSGAEVKKPGESLRISCKTSGYTFTEYTMHWVRQMPGKSLEWMGGIDPNNGNTHYNQKKQGHVTISVDKSISTAYLQWSSLKASDTAMYYCARIYYFGRLYFDFWGAGTLVTVSS VL: DIQMTQSPSSLSASVGDRVTITCQASEDIYNRLAWYQQKPGKVPKLLISGATSLETGVPSRFSGSGSGKDYTFTISSLQPEDIATYYCQQYWSSPLTFGGGTKVEIKR . Its measured EC50 is 0.783

Measured EC50, XENP35090 H1.6_L1 (antibody, V domains shown) VH: QVQLVQSGAEVKKPGASVKVSCKTSGYTFTEYTMHWVRQAPGQSLEWMGGIDPNSGNTHYNQKFQGRVTITVDKSASTAYMELSSLRSEDTAVYYCARIYYFGRLYFDFWGAGTLVTVSS VL: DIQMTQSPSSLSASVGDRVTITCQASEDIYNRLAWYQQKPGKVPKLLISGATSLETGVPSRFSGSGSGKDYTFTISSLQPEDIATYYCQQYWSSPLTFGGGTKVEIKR : 0.903

Briefly, EC50 measured for XENP34218, humanized C6-30 H1L1 bivalent mAb (antibody, V domains shown) VH: QVQLVQSGAEVKKPGASVKVSCKTSGYTFTEYTMHWVRQAPGQSLEWMGGIDPNNGNTHYNQKFQGRVTITVDKSASTAYMELSSLRSEDTAVYYCARIYYFGRLYFDFWGAGTLVTVSS VL: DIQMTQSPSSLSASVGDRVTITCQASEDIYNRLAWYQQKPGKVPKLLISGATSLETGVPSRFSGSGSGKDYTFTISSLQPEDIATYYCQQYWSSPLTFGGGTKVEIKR : 0.344

Looking up XENP35865 H2_L1.60 (antibody, V domains shown) VH: EVQLVQSGAEVKKPGESLRISCKTSGYTFTEYTMHWVRQMPGKSLEWMGGIDPNNGNTHYNQKFQGHVTISVDKSISTAYLQWSSLKASDTAMYYCARIYYFGRLYFDFWGAGTLVTVSS VL: DIQMTQSPSSLSASVGDRVTITCQASEDIYNRLAWYQQKPGKVPKLLISGATSLETGVPSRFSGSGSGKDYTFTISSLQPEDIATYYCQQLWSSPLTFGGGTKVEIKR , I found its EC50 recorded as 0.686

Sure, the documented EC50 for XENP36021 H2.71_L1 (antibody, V domains shown) VH: EVQLVQSGAEVKKPGESLRISCKTSGYTFTEYTMHWVRQMPGKSLEWMGGIDLNNGNTHYNQKFQGHVTISVDKSISTAYLQWSSLKASDTAMYYCARIYYFGRLYFDFWGAGTLVTVSS VL: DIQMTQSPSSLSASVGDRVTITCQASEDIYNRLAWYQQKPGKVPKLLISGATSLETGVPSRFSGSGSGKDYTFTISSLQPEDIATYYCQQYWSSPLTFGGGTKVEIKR is 0.902

Entry under test: XENP35888 H1.24_L1 (antibody, V domains shown) VH: QVQLVQSGAEVKKPGASVKVSCKTSGYTFTEYTMHWVRQAPGQSLEWMGGIDPNNGNTHYNQKFQGRVTITVDKSASTAYMELSSLRSEDTAVYYCARIYYLGRLYFDFWGAGTLVTVSS VL: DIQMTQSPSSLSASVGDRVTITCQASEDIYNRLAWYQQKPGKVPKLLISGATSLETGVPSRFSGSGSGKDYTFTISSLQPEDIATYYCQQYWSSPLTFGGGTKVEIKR . Its EC50 was 0.657
